# assayed.target: Cathepsin G (cathepsin G human neutrophil) (Homo sapiens, UniProt P08311)
# Construct: Cathepsin G (cathepsin G human neutrophil, Sigma-Aldrich); purchased Sigma-Aldrich; host or cells: human neutrophil
# procedure.text: IC50 determination, spectrophotometric protease assay
# Format: biochemical
# protocol.conditions: read-out: CatG IC50; biotin probes; 15 min preincubation at 37 °C; mean ± SD
pIC50: −log10 of the molar value.
parameter.measured: pIC50

molecule	measured.value
O=C(CCCCC1SCC2NC(=O)NC21)NCCOCCOCCOCCn1cc(CCCOC(=O)NC(Cc2ccccc2)P(=O)(Oc2ccccc2)Oc2ccccc2)nn1 (stereo not shown)	5.56

###

# assayed.target: TLCK-treated pancreatic bovine chymotrypsin (Bos taurus)
# Construct: TLCK-treated pancreatic bovine chymotrypsin (Sigma-Aldrich); purchased Sigma-Aldrich; host or cells: bovine pancreas
# procedure.text: IC50 determination, spectrophotometric protease assay
# Assay type: biochemical
In this section we review reported IC50 values for a set of compounds.
parameter.measured: IC50 (nM)

compound	assayed.target	parameter.measured	censoring.sign	measured.value
C#CCCCOC(=O)NC(c1ccc(NC(=N)N)cc1)P(=O)(Oc1ccc(Cl)cc1)Oc1ccc(Cl)cc1 (stereo not shown) [39b]	TLCK-treated pancreatic bovine chymotrypsin (Bos taurus)	IC50	>	10000
C#CCCCOC(=O)NC(Cc1ccc(CNC(=N)N)cc1)P(=O)(Oc1ccccc1)Oc1ccccc1 (stereo not shown) [40b]	TLCK-treated pancreatic bovine chymotrypsin (Bos taurus)	IC50	>	10000
C#CCCCOC(=O)NC(Cc1ccc(N)cc1)P(=O)(Oc1ccc(NC(C)=O)cc1)Oc1ccc(NC(C)=O)cc1 (stereo not shown) [17b]	TLCK-treated pancreatic bovine chymotrypsin (Bos taurus)	IC50	=	490
C[C@@H]1NC(=O)N[C@@H]1CCCCCC(=O)NCCOCCOCCOCCn1cc(CCCOC(=O)NC(Cc2ccccc2)P(=O)(Oc2ccccc2)Oc2ccccc2)nn1 (stereo partly shown)	TLCK-treated pancreatic bovine chymotrypsin (Bos taurus)	IC50	=	2070
C[C@@H]1NC(=O)N[C@@H]1CCCCCC(=O)NCCOCCOCCOCCn1cc(CCCOC(=O)NC(Cc2ccc(NC(=N)N)cc2)P(=O)(Oc2ccccc2)Oc2ccccc2)nn1 (stereo partly shown) [50b]	TLCK-treated pancreatic bovine chymotrypsin (Bos taurus)	IC50	=	1640
C#CCCCOC(=O)NC(Cc1ccc(N)cc1)P(=O)(Oc1ccc(Cl)cc1)Oc1ccc(Cl)cc1 (stereo not shown) [18b]	TLCK-treated pancreatic bovine chymotrypsin (Bos taurus)	IC50	=	190
C#CCCCOC(=O)NC(c1ccc(NC(=N)N)cc1)P(=O)(Oc1ccc(NC(C)=O)cc1)Oc1ccc(NC(C)=O)cc1 (stereo not shown) [38b]	TLCK-treated pancreatic bovine chymotrypsin (Bos taurus)	IC50	>	10000

###

# assayed.target: uPA (recombinant urokinase plasminogen activator) (Homo sapiens, UniProt P00749)
# Construct: purchased HYPHEN BioMed
# procedure.text: IC50 determination, spectrophotometric protease assay
# Assay type: biochemical
# Method: The IC50 values were determined using a spectrophotometric assay. All the experiments were conducted in duplicate. The readout consisted of evaluating the protease-mediated release of the chromophore para-nitroaniline (pNA) or fluorophore 7-amino-4-methyl coumarin (AMC) moieties from the respective substrates. Enzymatic activity was measured for 30 min at 37°C. All compounds were initially screened at three concentrations (10, 1, and .1 μM) to estimate the range of the IC50 value. […]
pIC50: −log10 of the molar value.
In this section we review reported pIC50 values for a set of molecules.

molecule	censoring.sign	pIC50
C#CCCCOC(=O)NC(c1ccc(NC(=N)N)cc1)P(=O)(Oc1ccccc1)Oc1ccccc1.O=C(O)C(F)(F)F (stereo not shown) [37b]	=	5.75
C#CCCCOC(=O)NC(CCCN)P(=O)(Oc1ccccc1)Oc1ccccc1.O=C(O)C(F)(F)F (stereo not shown) [14b]	<	5.00
C#CCCCOC(=O)NC(CCCCN)P(=O)(Oc1ccccc1)Oc1ccccc1.O=C(O)C(F)(F)F (stereo not shown) [29b]	=	5.28
C#CCCCOC(=O)NC(Cc1ccccc1)P(=O)(Oc1ccccc1)Oc1ccccc1 (stereo not shown)	<	5.00
C#CCCCOC(=O)NC(c1ccc(NC(=N)N)cc1)P(=O)(Oc1ccc(Cl)cc1)Oc1ccc(Cl)cc1 (stereo not shown) [39b]	=	6.66
C#CCCCOC(=O)NC(Cc1ccc(CN)cc1)P(=O)(Oc1ccccc1)Oc1ccccc1 (stereo not shown) [22b]	=	5.64
C#CCCCOC(=O)NC(c1ccc(N)cc1)P(=O)(Oc1ccc(NC(C)=O)cc1)Oc1ccc(NC(C)=O)cc1 (stereo not shown) [20b]	<	5.00
C#CCCCOC(=O)NC(CCCNC(=N)N)P(=O)(Oc1ccccc1)Oc1ccccc1 (stereo not shown) [32b]	=	5.32
C#CCCCOC(=O)NC(c1ccc(N)cc1)P(=O)(Oc1ccccc1)Oc1ccccc1 (stereo not shown) [19b]	<	5.00
C#CCCCOC(=O)NC(Cc1ccc(NC(=N)N)cc1)P(=O)(Oc1ccc(NC(C)=O)cc1)Oc1ccc(NC(C)=O)cc1 (stereo not shown) [35b]	=	8.30
C#CCCCOC(=O)NC(C1CCNCC1)P(=O)(Oc1ccccc1)Oc1ccccc1 (stereo not shown) [23b]	<	5.00
C#CCCCOC(=O)NC(c1ccc(N)cc1)P(=O)(Oc1ccc(Cl)cc1)Oc1ccc(Cl)cc1 (stereo not shown) [21b]	<	5.00
C#CCCCOC(=O)NC(C1CCN(C(=N)N)CC1)P(=O)(Oc1ccccc1)Oc1ccccc1 (stereo not shown) [41b]	<	5.00
C#CCCCOC(=O)NC(Cc1ccc(N)cc1)P(=O)(Oc1ccc(Cl)cc1)Oc1ccc(Cl)cc1 (stereo not shown) [18b]	=	5.20
CC(C)C(NC(=O)OCCCc1cn(CCOCCOCCOCCNC(=O)CCCCC[C@H]2NC(=O)N[C@H]2C)nn1)P(=O)(Oc1ccccc1)Oc1ccccc1 (stereo partly shown)	<	5.00
C#CCCCOC(=O)NC(Cc1ccc(CNC(=N)N)cc1)P(=O)(Oc1ccccc1)Oc1ccccc1 (stereo not shown) [40b]	<	5.00

###

# assayed.target: Trypsin-3 (recombinant trypsin-3) (Homo sapiens, UniProt P35030)
# Construct: purchased R&D
# Sequence (P35030 whole entry): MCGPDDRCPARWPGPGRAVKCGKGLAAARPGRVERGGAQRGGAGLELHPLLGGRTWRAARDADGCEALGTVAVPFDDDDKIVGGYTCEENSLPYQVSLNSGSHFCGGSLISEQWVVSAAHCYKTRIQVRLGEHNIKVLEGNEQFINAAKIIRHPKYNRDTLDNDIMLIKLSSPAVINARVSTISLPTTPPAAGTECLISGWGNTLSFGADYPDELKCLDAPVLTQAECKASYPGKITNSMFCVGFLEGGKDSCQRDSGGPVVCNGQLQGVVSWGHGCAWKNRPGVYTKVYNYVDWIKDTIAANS
# procedure.text: IC50 determination, spectrophotometric protease assay
# Type: biochemical
# protocol.conditions: read-out: Trypsin-3 IC50; desthiobiotin probes; 15 min preincubation at 37°C; mean ± SD
// assign condition met if IC50 falls strictly below 200 nM, else condition not met (ties count as condition not met)

compound	assayed.target	label.value
C[C@@H]1NC(=O)N[C@@H]1CCCCCC(=O)NCCOCCOCCOCCn1cc(CCCOC(=O)NC(c2ccc(NC(=N)N)cc2)P(=O)(Oc2ccc(Cl)cc2)Oc2ccc(Cl)cc2)nn1 (stereo partly shown) [57b]	Trypsin-3 (recombinant trypsin-3) (Homo sapiens, UniProt P35030)	condition met
C[C@@H]1NC(=O)N[C@@H]1CCCCCC(=O)NCCOCCOCCOCCn1cc(CCCOC(=O)NC(c2ccc(NC(=N)N)cc2)P(=O)(Oc2ccccc2)Oc2ccccc2)nn1 (stereo partly shown) [55b]	Trypsin-3 (recombinant trypsin-3) (Homo sapiens, UniProt P35030)	condition not met
C[C@@H]1NC(=O)N[C@@H]1CCCCCC(=O)NCCOCCOCCOCCn1cc(CCCOC(=O)NC(CCCNC(=N)N)P(=O)(Oc2ccc(Cl)cc2)Oc2ccc(Cl)cc2)nn1 (stereo partly shown) [46b]	Trypsin-3 (recombinant trypsin-3) (Homo sapiens, UniProt P35030)	condition met
C[C@@H]1NC(=O)N[C@@H]1CCCCCC(=O)NCCOCCOCCOCCn1cc(CCCOC(=O)NC(CCCNC(=N)N)P(=O)(Oc2ccccc2)Oc2ccccc2)nn1 (stereo partly shown) [45b]	Trypsin-3 (recombinant trypsin-3) (Homo sapiens, UniProt P35030)	condition not met
CC(=O)Nc1ccc(OP(=O)(Oc2ccc(NC(C)=O)cc2)C(CCCCN)NC(=O)OCCCc2cn(CCOCCOCCOCCNC(=O)CCCCC[C@H]3NC(=O)N[C@H]3C)nn2)cc1 (stereo partly shown) [49b]	Trypsin-3 (recombinant trypsin-3) (Homo sapiens, UniProt P35030)	condition met
CC(=O)Nc1ccc(OP(=O)(Oc2ccc(NC(C)=O)cc2)C(NC(=O)OCCCc2cn(CCOCCOCCOCCNC(=O)CCCCC[C@H]3NC(=O)N[C@H]3C)nn2)c2ccc(NC(=N)N)cc2)cc1 (stereo partly shown) [56b]	Trypsin-3 (recombinant trypsin-3) (Homo sapiens, UniProt P35030)	condition not met
C[C@@H]1NC(=O)N[C@@H]1CCCCCC(=O)NCCOCCOCCOCCn1cc(CCCOC(=O)NC(CCCCN)P(=O)(Oc2ccccc2)Oc2ccccc2)nn1 (stereo partly shown) [47b]	Trypsin-3 (recombinant trypsin-3) (Homo sapiens, UniProt P35030)	condition not met

###

# assayed.target: Trypsin-3 (Homo sapiens)
# Sequence (P35030 whole entry): as above
# procedure.text: Kinetic progress curves (kapp, K1, KI*, mechanism)
# Assay type: biochemical
# Parameters: purchased R&D
# protocol.conditions: Trypsin-3 KI*, apparent equilibrium constant of the overall process; mean ± SD

molecule	Ki (nM)
C#CCCCOC(=O)NC(Cc1ccc(NC(=N)N)cc1)P(=O)(Oc1ccccc1)Oc1ccccc1 (stereo not drawn) [34b]	3
C[C@@H]1NC(=O)N[C@@H]1CCCCCC(=O)NCCOCCOCCOCCn1cc(CCCOC(=O)NC(Cc2ccc(NC(=N)N)cc2)P(=O)(Oc2ccc(Cl)cc2)Oc2ccc(Cl)cc2)nn1 (stereo partly drawn) [54b]	0.8
C#CCCCOC(=O)NC(Cc1ccc(NC(=N)N)cc1)P(=O)(Oc1ccc(Cl)cc1)Oc1ccc(Cl)cc1 (stereo not drawn) [36b]	1
C[C@@H]1NC(=O)N[C@@H]1CCCCCC(=O)NCCOCCOCCOCCn1cc(CCCOC(=O)NC(Cc2ccc(NC(=N)N)cc2)P(=O)(Oc2ccccc2)Oc2ccccc2)nn1 (stereo partly drawn) [50b]	3
C#CCCCOC(=O)NC(Cc1ccc(NC(=N)N)cc1)P(=O)(Oc1ccc(NC(C)=O)cc1)Oc1ccc(NC(C)=O)cc1 (stereo not drawn) [35b]	0.1
CC(=O)Nc1ccc(OP(=O)(Oc2ccc(NC(C)=O)cc2)C(Cc2ccc(NC(=N)N)cc2)NC(=O)OCCCc2cn(CCOCCOCCOCCNC(=O)CCCCC[C@H]3NC(=O)N[C@H]3C)nn2)cc1 (stereo partly drawn) [52b]	1

These entries and their values trace back to paper PMC9849758.
